Published pIC50 for Coagulation factor X (Homo sapiens), assembled from different documents, is shown next.
Numbers only, as −log10 of the molar value.

Illustrative cases are given below, each with its answer.
Q. Which pIC50 value belongs to `N=C(N)c1ccc(CNC(=O)CN2C(=O)[C@H](NS(=O)(=O)Cc3ccccc3)CSc3ccc(CN)cc32)cc1` ?
A. 5.76

Q. Which pIC50 value belongs to `CCc1ccc(NC(=O)c2ccc(C(=N)N(C)C)cc2)c(C(=O)Nc2ccc(Cl)cn2)c1` ?
A. 9.00

Q. Which pIC50 value belongs to `CCCN(C)C(=N)c1ccc(NC(=O)c2cc(C)nn2-c2cc3ccccc3cc2F)c(F)c1` ?
A. 7.47

Q. Which pIC50 value belongs to `CC[C@@H](C)[C@@H](NC1CCCCC1)C(=O)N1C[C@](O)(CC)C[C@H]1C(=O)NCc1ccc2c(N)nccc2c1` ?
A. 7.03

Q. Which pIC50 value belongs to `N=C(N)NCCC[C@H](NC(=O)CN1CCN(Cc2ccccc2)CC1=O)C(=O)c1nccs1` ?
A. 6.11

Please state pIC50 for every compound in the list that follows.
1. CC(C)C(=O)N1CC[C@H](NC(=O)c2cc3cc(Cl)ccc3[nH]2)[C@H](NC(=O)c2nc3c(s2)CN(C)CC3)C1
2. COC(=O)[C@H](Cc1cccc(C(=N)N)c1)[C@@H](/C=C/c1ccccc1)NC(=O)c1ccc(-c2ccc(OC)c(OC)c2)cc1
3. O=C(NC[C@@H]1OC(=O)N2c3ccc(N4CCNCC4=O)cc3OC[C@@H]12)c1ccc(Cl)s1

A.
1: 8.25; 2: 7.52; 3: 6.72

* * *

pIC50: −log10 of the molar value.
Published pIC50 for Coagulation factor X (Homo sapiens, UniProt P00742), assembled from different documents, is shown next.
Rule: pIC50 of 6 or more gives Y; anything lower gives N.

Solved entries:
Q. Textbook exercise: given the entry `COCCN(C)c1cc(C(=N)N(C)C)ccc1C(=O)Nc1ccc(Cl)cc1C(=O)Nc1ccc(Cl)cn1` , state whether its pIC50 is greater than or equal to 6.
A. Y

Q. Textbook exercise: given the entry N=C(N)NCCCC(NC(=O)CN1CCN(S(=O)(=O)/C=C/c2ccccc2)CC1=O)C(=O)c1nccs1 (stereo not drawn) , state whether its pIC50 is greater than or equal to 6.
A. Y

Q. Textbook exercise: given the entry `CN1CCN=C1c1ccc(C(=O)N2CCN(S(=O)(=O)c3cc4ccc(Cl)cc4s3)CC2)cc1` , state whether its pIC50 is greater than or equal to 6.
A. Y

New cases:
Q. Textbook exercise: given the entry CN1CCc2nc(C(=O)NC3CCNCC3NC(=O)c3cc4cc(Cl)ccc4[nH]3)sc2C1 (racemic) , state whether its pIC50 is greater than or equal to 6.
A. Y

Q. Textbook exercise: given the entry CS(=O)(=O)Nc1c(CCCc2ccccc2)ccn(CC(=O)N[C@H]2CCCN(C(=N)N)C2O)c1=O (stereo partly drawn) , state whether its pIC50 is greater than or equal to 6.
A. N

Q. Textbook exercise: given the entry `N=C(c1ccc(CN2CCN(S(=O)(=O)c3cc4cc(Cl)ccc4[nH]3)CC2=O)cc1)N1CCCC1` , state whether its pIC50 is greater than or equal to 6.
A. Y

Q. Textbook exercise: given the entry `C#Cc1ccc(-c2ccc(C(=O)NCC(C)C)cc2C(=O)O)c(C(=O)Nc2ccc(C(=N)N)cc2)c1` , state whether its pIC50 is greater than or equal to 6.
A. N

Q. Textbook exercise: given the entry CCC(C)[C@H](NC(=O)[C@H](CC(C)C)NC(=O)NCc1ccc(Cl)c(Cl)c1)C(=O)N[C@@H](CCCN=C(N)N)C(=O)c1nccs1 (stereo partly drawn) , state whether its pIC50 is greater than or equal to 6.
A. N

Q. Textbook exercise: given the entry `Nc1nc(-c2ccccn2)nn1C(=O)c1ccco1` , state whether its pIC50 is greater than or equal to 6.
A. N

Q. Textbook exercise: given the entry `CCc1cc2cc(N=C(NC#N)N[C@H]3CCCCN(CC(=O)N4CCCC4)C3=O)ccc2o1` , state whether its pIC50 is greater than or equal to 6.
A. N

Q. Textbook exercise: given the entry `Cc1cc(C(=O)Nc2ccc(-c3ccccc3S(N)(=O)=O)cc2)n(-c2cc3ccccc3cc2F)n1` , state whether its pIC50 is greater than or equal to 6.
A. Y

Q. Textbook exercise: given the entry `O=C(CCS(=O)(=O)c1ccc2cc(Cl)ccc2c1)N1CCC(c2ncc[nH]2)CC1` , state whether its pIC50 is greater than or equal to 6.
A. N

Q. Textbook exercise: given the entry `O=C(Cc1ccc2[nH]c(-c3ccc(Cl)s3)nc2c1)NCc1ccc(N2CCOCC2=O)cc1` , state whether its pIC50 is greater than or equal to 6.
A. Y

Q. Textbook exercise: given the entry `CN(C(=O)[C@@H]1CCCN(C(=O)c2ccc(Cl)s2)C1)c1ccc(N2CCCCC2=O)cc1` , state whether its pIC50 is greater than or equal to 6.
A. N

Q. Textbook exercise: given the entry `C/C(=C1\CC(=O)N(c2ccc(C(C)(C)C)cc2)C1=O)c1cccc(C(=N)N)c1` , state whether its pIC50 is greater than or equal to 6.
A. Y

Q. Textbook exercise: given the entry `Cc1cc2cc(N=C(NC#N)N[C@H]3CCCCN(CC(=O)N4CCCC4)C3=O)ccc2s1` , state whether its pIC50 is greater than or equal to 6.
A. N

Q. Textbook exercise: given the entry `CN1CCN=C1c1ccc(NC(=O)c2nnnn2-c2ccc3cc(Cl)ccc3c2)c(F)c1` , state whether its pIC50 is greater than or equal to 6.
A. Y

Q. Textbook exercise: given the entry `CCN(C)c1cc(Cl)cc(C(=O)Nc2ccc(Cl)cn2)c1NC(=O)c1ccc(C(=N)N(C)C)cc1` , state whether its pIC50 is greater than or equal to 6.
A. Y

* * *

Published IC50 for Coagulation factor X (Homo sapiens), assembled from different documents, is shown next.
Give bare numbers, in nM.

Illustrative cases are given below, each with its answer.
Q. Which IC50 value belongs to `CS(=O)(=O)N[C@H](CCCNC(=N)N)C(=O)NCC(=O)N[C@@H](CCCNC(=N)N)C(=O)c1nccs1` ?
A. 2

Q. Which IC50 value belongs to `CCOC(=O)[C@]1(C)CCC[C@@]2(C)[C@@H]3CC[C@@]4(C)C[C@]3(CC[C@@H]21)C/C4=N\NC(=S)Nc1ccc(Cl)cc1` ?
A. 153

Q. Which IC50 value belongs to `COc1ccc(-n2nc(-n3cnnc3CN3CCOCC3)c3c2C(=O)N(c2ccc(N4CCCCC4=O)cc2)CC3)cc1` ?
A. 140

Q. Which IC50 value belongs to `COc1ccc(OC)c(S(=O)(=O)N2CCC(N(Cc3ccc4ccc(C(=N)N)cc4c3)S(C)(=O)=O)CC2)c1` ?
A. 11

Q. Which IC50 value belongs to `O=C(NC[C@@H]1OC(=O)N2c3ccc(N4CCN(Cc5ccccc5)CC4=O)cc3OC[C@@H]12)c1ccc(Cl)s1` ?
A. 11400

Q. Which IC50 value belongs to `O=C(Nc1ccc(Cl)cc1C(=O)Nc1ccc(Cl)cn1)c1ccc(CN2CCNCC2)cc1` ?
A. 17

Please state IC50 for every compound in the list that follows.
1. O=C(Nc1ccc(Cl)cc1C(=O)Nc1ccc(Cl)cn1)c1ccc(-c2cccc(N3CCC(O)CC3)c2)cc1
2. O=C(CCS(=O)(=O)c1ccc2cc(Cl)ccc2c1)N1CCC(c2cnc3ccccn23)CC1

A.
7
12

Please state IC50 for every compound in the list that follows.
1. CC(C)[C@H](NC(=O)[C@H](CC(N)=O)NC(=O)N[C@H](C)c1ccc(Br)cc1)C(=O)N[C@@H](CCCNC(=N)N)C(=O)c1nccs1
2. N=C(N)c1ccc2oc(CCc3ccc(O[C@H]4CCNC4)cc3)cc2c1
3. COc1ccc(NC(=O)c2nc3c(s2)CN(C)CC3)c(C(=O)Nc2ccc(Cl)cn2)c1
4. CN(C(=O)CS(=O)(=O)c1ccc2cc(Cl)ccc2c1)C1CCN(c2ccncc2)CC1
5. Cc1cc(C(=O)Nc2ccc(N3CCCCC3=O)cc2F)n(-c2cc3ccccc3cc2S(C)(=O)=O)n1
6. Nc1noc2c(N3CC[C@@H](NC(=O)c4ccc(-n5cnnc5)cc4Cl)C3)cc(Cl)c(Cl)c12
7. O=C(NC[C@@H]1OC(=O)N2c3ccc(N4CCOCC4=O)cc3OC[C@@H]12)c1cc(Cl)c(Cl)s1
8. O=C(C1CCN(c2ccncc2)CC1)N1CCN(S(=O)(=O)c2ccc3cc(Cl)ccc3c2)CC1

A.
1. 1600
2. 940
3. 3.5
4. 720
5. 27
6. 29000
7. 8080
8. 33

* * *

Published pIC50 for Coagulation factor X (Homo sapiens), assembled from different documents, is shown next.
One number for each entry, as −log10 of the molar value.

Illustrative cases are given below, each with its answer.
Q. Notebook entry, Coagulation factor X (Homo sapiens) assay: pIC50 of N=C(N)NCCCC(NC(=O)CN1CCN(S(=O)(=O)c2ccc(NO)cc2)CC1=O)C(=O)c1nccs1 (stereo not drawn) = ?
A. 8.00

Q. Notebook entry, Coagulation factor X (Homo sapiens) assay: pIC50 of `COc1ccc(NC(=N[C@H]2CCCCN(CC(=O)N3CCCC3)C2=O)NC(=O)c2ccccc2)cc1` = ?
A. 6.61

Please state pIC50 for every compound in the list that follows.
1. N=C(N)NCCCC(NC(=O)CN1CCN(S(=O)(=O)c2ccc(-c3ccccn3)s2)CC1=O)C(=O)c1nccs1 (stereo not drawn)
2. CN1CCN=C1c1ccc(C(=O)N2CCN(S(=O)(=O)c3cc4ccc(Cl)cc4s3)CC2CC(=O)O)cc1 (stereo not drawn)
3. N=C(N)NCCC[C@H](NC(=O)[C@H](Cc1ccc(Br)cc1)NC(=O)[C@@H](Cc1ccccc1)NS(=O)(=O)Cc1ccccc1)C(=O)c1nccs1
4. CS(=O)(=O)CC[C@H](NC(=O)[C@@H](Cc1ccccc1)NS(=O)(=O)Cc1ccccc1)C(=O)N[C@@H](CCCN=C(N)N)C(=O)c1nccs1
5. CN(C)C(=N)c1ccc(C(=O)Nc2c(Cl)cccc2C(=O)Nc2ccc(Cl)cn2)cc1

A.
1. 8.40
2. 7.54
3. 6.42
4. 5.70
5. 7.68
